assayProtocol: Biodistribution in HEK293-hsst2A+ tumor-bearing mice
Type: in vivo
measurementConditions: mouse, spleen, iv, total radioactivity; HEK293-hsst2A+ tumor SCID mice, 4 h pi + co-injection of 35 nmol DP2; mean ± SD; read-out: Spleen uptake, blocked
assayEndpoint: tissue uptake at 4 h (%ID/g)
Numbers only here, please. The scale is %ID/g.

Which tissue uptake at 4 h is reported for this molecule? C[C@H](NC(=O)CN1CCN(CC(=O)O)CCN(CC(=O)O)CCN(CC(=O)O)CC1)C(=O)NCC(=O)N[C@H]1CSSC[C@@H](C(=O)O)NC(=O)[C@H](CO)NC(=O)[C@H]([C@@H](C)O)NC(=O)[C@H](Cc2ccccc2)NC(=O)[C@H]([C@@H](C)O)NC(=O)[C@H](CCCCN)NC(=O)[C@@H](Cc2c[nH]c3ccccc23)NC(=O)[C@H](Cc2ccccc2)NC(=O)[C@H](Cc2ccccc2)NC(=O)[C@H](CC(N)=O)NC(=O)[C@H](CCCCN)NC1=O [[^111In]AT2S, metal not drawn]
0.5
